Reference for the values: paper PMC9652372

# SYSTEM UNDER TEST: murine PGP (Mus musculus)
OBSERVED PROPERTY: IC50

molecule="O=C(O)c1cc2ccccc2c(-c2c(O)c(C(=O)O)cc3ccccc23)c1O [GYJACFGQPFXKCA-UHFFFAOYSA-N]" system_under_test="murine PGP (Mus musculus)" value_reported="> 50 µM"

----------
# SYSTEM UNDER TEST: murine PGP (Mus musculus)
# Sequence (Q8CHP8 1-321): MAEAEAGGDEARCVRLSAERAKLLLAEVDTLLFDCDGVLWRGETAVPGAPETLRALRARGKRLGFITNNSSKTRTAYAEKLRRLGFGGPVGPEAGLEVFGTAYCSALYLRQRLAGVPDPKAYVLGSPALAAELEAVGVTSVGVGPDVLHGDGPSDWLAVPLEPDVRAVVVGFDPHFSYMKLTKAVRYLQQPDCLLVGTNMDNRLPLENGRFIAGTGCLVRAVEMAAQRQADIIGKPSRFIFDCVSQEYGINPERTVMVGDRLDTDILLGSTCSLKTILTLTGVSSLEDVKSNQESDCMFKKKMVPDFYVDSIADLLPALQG
# METHOD DESCRIPTION: IC50 determination, murine PGP, 2-phospho-L-lactate (2PL) dephosphorylation
OBSERVED PROPERTY: IC50 (nM)

compound="O=C(Nc1ccccc1C(=O)O)c1ccc(Oc2ccc(C(=O)Nc3ccccc3C(=O)O)cc2)cc1 [CP1]" observed_property=IC50 value_reported=310
